Tested on: P. berghei ANKA strain
Assay: animal or person
Assay type: in vivo
Conditions: Table 2; trioxane 6 mg/kg + mefloquine 18 mg/kg
Form field: % parasitemia suppression (one value per entry).
measuredMetric: % parasitemia suppression

1. CO[C@H]1O[C@@H]2O[C@@]3(C)CC[C@H]4[C@H](C)CC[C@@H]([C@H]1C)[C@@]24OO3 [artemether (4b), artemether, reference compound]: >99.9%
2. C#CCO/N=C(/C[C@H]1O[C@@H]2O[C@@]3(C)CC[C@H]4[C@H](C)CC[C@@H]([C@H]1C)[C@@]24OO3)[C@H]1O[C@@H]2O[C@@]3(C)CC[C@H]4[C@H](C)CC[C@@H]([C@H]1C)[C@@]24OO3: >99.9%
